# credit: a melting point compilation (Tetko et al.)

Reported melting point values follow for various compounds

Completed entries (count: 3):
Just so you know, measured melting point for `COc1cc(CN)ccc1OC(C)(C)C` came out at 52 to 54 °C

Just so you know, measured melting point for `Nc1cnc(-c2cccc(F)c2)nc1` came out at 112 to 114 °C

Just so you know, measured melting point for `ClCc1cnoc1-c1ccc(Cl)cc1` came out at 78 to 80 °C

***
Just so you know, measured melting point for `Cc1cc(C)c2nc(Cl)cc(C)c2c1` came out at 128 to 132 °C

Just so you know, measured melting point for `N#CCCC(=O)c1cccnc1` came out at 71 to 73 °C

Just so you know, measured melting point for `Nc1nc(-c2cccc(C(F)(F)F)c2)cs1` came out at 85 to 87 °C

Just so you know, measured melting point for `Cc1ccccc1-n1nc(-c2ccccc2)cc1N` came out at 109 to 111 °C

Just so you know, measured melting point for `O=C(Nc1nnc(C2CCCCC2)s1)OCC(F)(F)F` came out at 182 to 184 °C

###

Reported melting point values follow for various compounds

Just so you know, measured melting point for `O=C(O)c1ccc(CCC(F)(F)F)cc1` came out at 211 to 213 °C

Just so you know, measured melting point for `Cc1c([N+](=O)[O-])cc(C(=O)O)cc1S(=O)(=O)Cl` came out at 176 to 178 °C

Just so you know, measured melting point for `Cc1ccc2c(c1)CCC2=O` came out at 69 to 73 °C

Just so you know, measured melting point for `O=C(CBr)c1ccc2c(c1)CCO2` came out at 72 to 74 °C

Just so you know, measured melting point for `CCC(=CC(=O)O)c1ccc(C)cc1` came out at 116 to 118 °C

###

Reported melting point values follow for various molecules

Completed entries (count: 3):
Just so you know, measured melting point for `CCNc1ccc(S(=O)(=O)C(F)F)cc1N` came out at 115 to 117 °C

Just so you know, measured melting point for `CC(C)(C)OC(=O)N1CCc2n[nH]c(=O)cc2C1` came out at 187 to 189 °C

Just so you know, measured melting point for `Cc1c(Br)ccc(C(=O)O)c1N` came out at 221 to 223 °C

***
Just so you know, measured melting point for `O=C(O)Cc1cccc(OCc2ccccc2Cl)c1` came out at 64 to 66 °C

Just so you know, measured melting point for `N#Cc1cccc(OC2CCNCC2)c1` came out at 52 to 54 °C

Just so you know, measured melting point for O=C(CC1CCCCC1)NC1CCC(C(=O)O)CC1 (configuration not stated) came out at 136 to 138 °C

Just so you know, measured melting point for `Cc1nn(-c2ccc(F)cc2)c2[nH]nc(N)c12` came out at 168 to 170 °C

###

Reported melting point values follow for various compounds

Completed entries (count: 2):
Just so you know, measured melting point for `COC(=O)c1cc(C)nc(SC)n1` came out at 116 to 118 °C

Just so you know, measured melting point for `C=CCNC(=O)Nc1ccc(N)cc1` came out at 157 to 159 °C

***
Just so you know, measured melting point for `CCn1c(=O)c(=O)[nH]c2cc(C(=O)O)ccc21` came out at 270 to 285 °C

Just so you know, measured melting point for `CCOC(=O)c1oc2c(c1C)C(=O)CCC2` came out at 104 to 106 °C

Just so you know, measured melting point for `O=C(O)c1ccc2nnc(C(F)F)n2c1` came out at 278 to 280 °C

Just so you know, measured melting point for `COc1ccc(Cn2nccc2N)cc1OC` came out at < 17 °C

Just so you know, measured melting point for `Cc1ccc(-c2nc(N)sc2CN(C)C)cc1` came out at 175 to 177 °C

###

Reported melting point values follow for various molecules

Completed entries (count: 5):
Just so you know, measured melting point for `NC(=O)c1ccc(CCl)c([N+](=O)[O-])c1` came out at 115 to 117 °C

Just so you know, measured melting point for `Cc1nn(-c2ccc(Cl)cc2Cl)c(C)c1CC(=O)O` came out at 186 to 188 °C

Just so you know, measured melting point for `CC(C)CCS(=O)(=O)CC(=O)O` came out at 61 to 63 °C

Just so you know, measured melting point for `Cc1c(C(=O)O)oc2c(F)cc(F)cc12` came out at 339 to 341 °C

Just so you know, measured melting point for `O=c1cc(CCl)c2cc(O)c(O)cc2o1` came out at 178 to 180 °C

***
Just so you know, measured melting point for `O=C1CN(S(=O)(=O)c2cccc([N+](=O)[O-])c2)CCN1` came out at 217 to 219 °C

Just so you know, measured melting point for O=C(O)C1CCCc2ccccc21 (configuration not stated) came out at 84 to 86 °C

###

Reported melting point values follow for various molecules

Just so you know, measured melting point for `Cc1ccc(C)c(S(=O)(=O)NN)c1` came out at 75 to 77 °C

Just so you know, measured melting point for `CCn1cc(S(N)(=O)=O)cn1` came out at 86 to 88 °C

Just so you know, measured melting point for `Nc1cccc(C(=O)Nc2ccccn2)c1` came out at 111 to 113 °C

Just so you know, measured melting point for `CCOc1ccc(Nc2nnc(S)s2)cc1` came out at 170 to 172 °C

Just so you know, measured melting point for `CC(C)(C)n1ccnc1S` came out at 192 to 194 °C

Just so you know, measured melting point for `Cc1cc(C(=O)CCl)c(C)n1-c1ccc(OC(F)F)cc1` came out at 83 to 87 °C

Just so you know, measured melting point for `O=c1[nH]c2ccc(C(F)(F)F)cc2c(=O)o1` came out at 269 to 271 °C

Just so you know, measured melting point for `CC(C)(C)OC(=O)NCCCCCCC(=O)O` came out at 44 to 46 °C

***
Just so you know, measured melting point for `Cn1cnnc1CO` came out at 49 to 51 °C

Just so you know, measured melting point for `CCNC(=O)c1ccc(CN)cc1` came out at 92 to 94 °C

###

Reported melting point values follow for various molecules

Just so you know, measured melting point for CCOC(=O)c1c(N)sc2c1CCC(CC)C2 (stereo unspecified) came out at 88 to 90 °C

Just so you know, measured melting point for `CCN(CC)c1nc2sc(C(=O)O)cc2s1` came out at 191 to 193 °C

Just so you know, measured melting point for `CS(=O)(=O)c1cc(Br)cc(C(=O)O)c1F` came out at 209 to 211 °C

Just so you know, measured melting point for `CC(C)S(=O)(=O)c1ccc(CCl)cc1` came out at 69 to 71 °C

Just so you know, measured melting point for CC(C)C(NC(=O)COc1ccccc1)C(=O)O (stereo unspecified) came out at 165 to 167 °C

Just so you know, measured melting point for `Nc1ccc(-c2nc3cc(F)ccc3[nH]2)cc1` came out at 194 to 196 °C

Just so you know, measured melting point for `CC(C)(C)Sc1ccc(C(N)=S)cn1` came out at 178 to 180 °C

Just so you know, measured melting point for `CN1N=C(C(N)=O)CCC1=O` came out at 169 to 171 °C

Just so you know, measured melting point for CC1(c2cccc(C(F)(F)F)c2)NC(=O)NC1=O (stereo unspecified) came out at 219 to 221 °C

Just so you know, measured melting point for `Cc1cc(NC(=O)c2ccccc2I)sc1C(=O)O` came out at 202 to 204 °C

Just so you know, measured melting point for `Cc1ccn2c(N)nnc2c1` came out at 287 to 289 °C

Just so you know, measured melting point for `O=[N+]([O-])c1c(Cl)nc2ccccn12` came out at 170 to 172 °C

Just so you know, measured melting point for `CC(C)(C)Cc1nc2cc(N)ccc2o1` came out at 83 to 85 °C

Just so you know, measured melting point for `COc1ccc(NS(C)(=O)=O)c(N)c1` came out at 144 to 146 °C

###

Reported melting point values follow for various compounds

Completed entries (count: 3):
Just so you know, measured melting point for `Cc1nccn1-c1ccc(F)cc1N` came out at 153 to 155 °C

Just so you know, measured melting point for `O=C(O)c1cc(-c2ccncc2)nc2ccccc12` came out at 308 to 310 °C

Just so you know, measured melting point for CC(N)c1ccccc1-c1ccccc1 (centres undefined) came out at 76 to 78 °C

***
Just so you know, measured melting point for `C#CCNc1nccs1` came out at 65 to 67 °C

Just so you know, measured melting point for OC1CCSc2ccccc21 (centres undefined) came out at 67 to 69 °C

Just so you know, measured melting point for `COc1ccc2ccc(-c3nn(-c4ccccc4)cc3C(=O)O)cc2c1` came out at 254 to 256 °C

Just so you know, measured melting point for `CS(=O)(=O)c1ccc(F)cc1[N+](=O)[O-]` came out at 148 to 150 °C

Just so you know, measured melting point for `Cc1nc2nc(N)nn2c(C)c1CC(=O)O` came out at 260 to 264 °C

Just so you know, measured melting point for `NNC(=O)Nc1ccc(Br)cc1` came out at 236 to 238 °C

Just so you know, measured melting point for `COc1ccc(C(C)=O)cc1CC(=O)O` came out at 122 to 124 °C

Just so you know, measured melting point for `CS(=O)(=O)CCCBr` came out at 35 to 37 °C

Just so you know, measured melting point for `COC(=O)c1ccc(-c2ccc(C(=O)O)cc2)cc1` came out at 300 to 302 °C

Just so you know, measured melting point for `N#Cc1ccc(-n2cnc(N)n2)cc1` came out at 238 to 240 °C

Just so you know, measured melting point for `COc1cc(/C=C/C(=O)O)cc(Cl)c1OC(C)C` came out at 113 to 115 °C
